Hey, just so you know, these numbers are from patent US10597388B2.

- Tested on: pigweed (Amaranthus retroflexus)
- method.description: Test D controlled growth environment herbicide test, pre- and postemergence
- Format: in vivo
- condition.set: Postemergence, 125 g ai/ha; visual rating on scale 0 (no effect) to 100 (complete control), 14 to 21 d
- Description: […]
experimental.endpoint: Plant response rating, Pigweed

# count of solved cases: 5
>>> endpoint_result("Cc1ccc2ccccc2c1-c1c(O)c(Br)nn(C)c1=O")
85
>>> endpoint_result("Cc1nn(C)c(=O)c(-c2ccc(F)c3ccccc23)c1O")
80
>>> endpoint_result("Cc1cc(C)c2ccccc2c1-c1c(O)c(C)nn(C)c1=O")
90
>>> endpoint_result("CCCC(=O)Oc1c(C)nn(C)c(=O)c1-c1c(C)sc2ccc(C)cc12")
100
>>> endpoint_result("Cc1ccc2sc(Br)c(-c3c(O)c(C)nn(C)c3=O)c2c1")
100

Input: Record lookup: for pigweed (Amaranthus retroflexus), what Plant response rating, Pigweed belongs to Cc1ccc2sc(C)c(-c3c(OC(=O)OC(C)C)c(C)nn(C)c3=O)c2c1 ?
Output: 100

Input: Record lookup: for pigweed (Amaranthus retroflexus), what Plant response rating, Pigweed belongs to Cc1ccc2ccccc2c1-c1c(OC(=O)OC(C)C)c(C)nn(C)c1=O ?
Output: 100

Input: Record lookup: for pigweed (Amaranthus retroflexus), what Plant response rating, Pigweed belongs to CC(=O)Oc1c(C)nn(C)c(=O)c1-c1c(C)sc2ccc(Cl)cc12 ?
Output: 100

Input: Record lookup: for pigweed (Amaranthus retroflexus), what Plant response rating, Pigweed belongs to Cc1cc2ccccc2c(-c2c(O)c(C)nn(C)c2=O)c1C ?
Output: 100

Input: Record lookup: for pigweed (Amaranthus retroflexus), what Plant response rating, Pigweed belongs to Cc1cc(C)c2sc(C)c(-c3c(O)c(C)nn(C)c3=O)c2c1 ?
Output: 85

###

- Tested on: lambsquarters (Chenopodium album)
- method.description: Test D controlled growth environment herbicide test, pre- and postemergence
- Type: in vivo
- condition.set: Preemergence, 62 g ai/ha; scale 0 to 100 (0 no effect, 100 complete control)
experimental.endpoint: Plant response rating, Lambsquarters
Just the number, please, no unit attached.

>>> endpoint_result("Cc1ccc2ccccc2c1-c1c(OC(=O)OC(C)C)c(C)nn(C)c1=O")
100

Input: Fill blank: measured Plant response rating, Lambsquarters of the molecule Cc1nn(C)c(=O)c(-c2cccc3ccccc23)c1O is ____.
Output: 35

Input: Fill blank: measured Plant response rating, Lambsquarters of the molecule Cc1nn(C)c(=O)c(-c2c(C)sc3c(C)cc(Cl)cc23)c1O is ____.
Output: 98

Input: Fill blank: measured Plant response rating, Lambsquarters of the molecule COC(=O)Oc1c(C)nn(C)c(=O)c1-c1c(C)sc2ccc(C)cc12 is ____.
Output: 100

Input: Fill blank: measured Plant response rating, Lambsquarters of the molecule Cc1nn(C)c(=O)c(-c2ccc(F)c3ccccc23)c1O is ____.
Output: 100

Input: Fill blank: measured Plant response rating, Lambsquarters of the molecule Cc1cc2ccccc2c(-c2c(O)c(C)nn(C)c2=O)c1C is ____.
Output: 60

###

- System: Italian ryegrass (Lolium multiflorum)
- method.description: Test E greenhouse herbicide test, pre- and postemergence
- Assay type: in vivo
- condition.set: 125 g ai/ha, Postemergence; scale 0 to 100 (0 no effect, 100 complete control)
- Source text: […]
Here, each record is paired with measured Plant response rating, Ryegrass, Italian data.
Just the number, please, no unit attached.

# count of solved cases: 4
>>> endpoint_result("Cc1cc(C)c2sc(C)c(-c3c(O)c(C)nn(C)c3=O)c2c1")
65
>>> endpoint_result("Cn1nc(Br)c(O)c(-c2cccc3ccccc23)c1=O")
70
>>> endpoint_result("Cc1ccc2sc(C)c(-c3c(OC(=O)OC(C)C)c(C)nn(C)c3=O)c2c1")
50
>>> endpoint_result("Cc1ccc2ccccc2c1-c1c(OC(=O)OC(C)C)c(C)nn(C)c1=O")
85

Then this molecule:
Input: Record lookup: for Italian ryegrass (Lolium multiflorum), what Plant response rating, Ryegrass, Italian belongs to CC(=O)Oc1c(C)nn(C)c(=O)c1-c1c(C)cc(C)c2ccccc12 ?
Output: 80
